Reference source: PubChem BioAssay (NCI)

- System: K-562 leukemia
- ASSAY COMMENT: NCI-60 one-dose screen, 48 h
- REPORTED CONDITIONS: 10 µM unless noted
The panel holds about 83,000 compounds, 20% with a hit somewhere; the sample as a whole holds those more often. Active and inactive are the calls of the source. The calls were made as follows: active = growth percent below 10; inactive = the rest.
Result category, one only: yes (1) = active, no (0) = inactive

Would you please look over these solved cases?
CCCC(C)(C)c1ccc2c(c1)OC(C)(C)[C@@H]1CC=C(C)C[C@@H]21; no (0)
CNC(C)Cc1ccccc1 (stereo unspecified) (tested in a mixture with another compound); no (0)
C[C@]12CC[C@@H]3C4=C(CC[C@H]3[C@@H]1CC[C@@H]2O)CC(=O)CC4; no (0)

query: Record lookup: outcome of this test for Cc1cc(CCl)c(C)cc1CCl ?
result: no (0)

query: Returns: the outcome recorded for COc1cc(C2=NN(c3ccccc3)C(c3sc(N(CCCl)CCCl)nc3Cl)C2)cc(OC)c1OC (stereo unspecified) in this assay.
result: no (0)

query: Please indicate how the test categorized C[CH2][Sn]([CH2]C)([CH2]C)[NH]S(=O)(=O)c1ccc(C)cc1 .
result: no (0)

query: Hello, I am checking results. What call was entered for NC(=O)OCC(CO)(c1ccccc1)c1ccccc1 ?
result: no (0)

query: For this molecule, state the assay outcome: COC(C)(C)CCC[C@H](C)C/C=C/C(C)=C/C(=O)OC(C)C
result: no (0)

query: Short answer needed: outcome of this test for N#C[Se]CCN1C(=O)C2C(C1=O)[C@H]1C=C[C@@H]2S1 (stereo partly specified) ?
result: no (0)

query: What is the recorded call for this molecule in the test? CC(C)Nc1ccc(Nc2ccccc2)cc1
result: no (0)

query: Lab log entry: CCOC(=O)/C=C(\C)Nc1ccc(N/C(C)=C/C(=O)OCC)c2c1Oc1ccccc1O2 — outcome as called in the assay?
result: no (0)

query: // param item: CNc1ccc(C(=O)CC(O)CCC(C)C2OC(=O)CC(O)CC(=O)CC(O)CC(O)CC(O)CC(O)CC3(O)CC(O)C(C(=O)OC)C(CC(O[C@@H]4O[C@H](C)[C@@H](O)[C@H](N)[C@@H]4O)/C=C/C=C/C=C/C=C/C=C/C=C/C=C/C2C)O3)cc1 (stereo partly specified) ; yields the recorded call
result: no (0)
